This collection of values is drawn from patent US12692221B2.

- Target desc: Potassium Channel hERG (human) (Homo sapiens)
- Construct: expressed in transfected cells; host or cells: HEK-293 cells
- Sequence (Q12809 whole entry): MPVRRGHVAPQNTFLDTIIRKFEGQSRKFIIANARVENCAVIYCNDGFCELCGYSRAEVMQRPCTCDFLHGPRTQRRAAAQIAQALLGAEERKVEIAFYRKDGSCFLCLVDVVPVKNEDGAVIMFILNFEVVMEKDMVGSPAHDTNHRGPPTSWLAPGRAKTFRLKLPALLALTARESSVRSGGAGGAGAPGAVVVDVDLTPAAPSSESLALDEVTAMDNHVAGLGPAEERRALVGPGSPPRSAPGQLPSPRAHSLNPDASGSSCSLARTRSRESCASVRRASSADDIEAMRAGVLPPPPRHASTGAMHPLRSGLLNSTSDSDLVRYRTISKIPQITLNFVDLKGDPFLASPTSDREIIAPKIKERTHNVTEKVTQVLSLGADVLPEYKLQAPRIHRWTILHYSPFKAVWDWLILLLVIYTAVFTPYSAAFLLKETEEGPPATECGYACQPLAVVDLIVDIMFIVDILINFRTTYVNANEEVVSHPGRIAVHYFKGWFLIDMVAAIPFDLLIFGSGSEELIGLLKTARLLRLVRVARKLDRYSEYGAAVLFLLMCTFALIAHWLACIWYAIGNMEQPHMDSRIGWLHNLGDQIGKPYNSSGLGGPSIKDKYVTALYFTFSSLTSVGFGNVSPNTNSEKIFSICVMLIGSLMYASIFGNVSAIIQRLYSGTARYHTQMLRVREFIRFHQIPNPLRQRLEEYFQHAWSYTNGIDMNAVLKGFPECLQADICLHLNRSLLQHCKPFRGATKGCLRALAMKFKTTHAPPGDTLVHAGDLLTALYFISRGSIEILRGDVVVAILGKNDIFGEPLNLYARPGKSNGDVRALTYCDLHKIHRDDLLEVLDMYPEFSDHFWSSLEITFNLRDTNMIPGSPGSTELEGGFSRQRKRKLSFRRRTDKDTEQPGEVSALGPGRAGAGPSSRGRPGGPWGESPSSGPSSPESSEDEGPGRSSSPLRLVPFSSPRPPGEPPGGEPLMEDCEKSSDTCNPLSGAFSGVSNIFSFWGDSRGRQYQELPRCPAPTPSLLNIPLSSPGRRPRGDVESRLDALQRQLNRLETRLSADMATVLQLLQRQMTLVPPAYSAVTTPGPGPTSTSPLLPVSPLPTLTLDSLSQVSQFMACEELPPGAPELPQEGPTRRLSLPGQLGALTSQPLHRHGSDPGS
- Protocol: Radioligand binding Potassium Channel hERG (human), [^3H]Dofetilide, HEK-293 cells
- Measurement setup: Potassium Channel hERG(h) ([3H] Dofetilide)
- Protocol: Methods—Binding Assays: In vitro binding assays were performed using human recombinant receptors expressed in mammalian cell lines. […] All assays were conducted in triplicate, and specific binding was quantified by scintillation counting as the detection method for each listed assay. Specific binding was expressed as a percentage of control-specific binding, and percent inhibition was calculated using the formula in Ex. 8 above. […]
Measured attribute: Mean Percent Inhibition of Control Specific Binding (%)

{"Compound": "COCCc1cc(CCN)c(OC)cc1Br [Compound 2CB-5ME, reference compound]", "Val": 8.5}
{"Compound": "COCc1cc(CCN)c(OC)cc1CC(C)C [Compound 2CiBu-5MM]", "Val": 4.4}
{"Compound": "COCc1cc(CCN)c(OC)cc1Br [Compound 2CB-5MM]", "Val": 13.9}
{"Compound": "COCc1cc(CCN)c(O)cc1CC(C)C [2CiBu-2OH-5MM]", "Val": 9.7}
